Target: human GPR84 receptor (Homo sapiens)
Construct: host or cells: HEK293, transiently transfected
Experiment: Gαi biosensor BRET assay (GPR84 antagonism vs agonist ZQ-16)
Format: cell-based
Settings: tested at 10 μM (concentration code D); HEK293 cells; 200 nmol/L agonist ZQ-16
Measurement Name: inhibition at 10 µM

Recorded inhibition at 10 µM of COCCNC(=O)COc1cc(C)n([C@H](C)c2ccc(C#CC3CC3)cc2)c(=O)c1 [Compound I-349] , please. > 75%

Repeat for the following compound: COC(=O)COc1cc(C)n([C@H](C)c2ccc(C#CC3CC3)cc2)c(=O)c1 [Compound I-22] > 75%

And what about the compound Cc1cc(OCC(=O)N(C)C2CC(F)(F)C2)cc(=O)n1[C@H](C)c1ccc(C#CC2CC2)cc1 [Compound I-67] ? > 75%

Now consider Cc1cc(OCC(=O)N(C)C)cc(=O)n1C(C)c1ccccn1 (centres unmarked) [Compound I-225] . < 25%

Also check Cc1cc(OCC2(N(C)C)COC2)cc(=O)n1[C@H](C)c1ccc(C#CC2CC2)cc1 [Compound I-36] > 75%

Request: Cc1cc(OCC(N(C)C)C(F)(F)F)cc(=O)n1[C@H](C)c1ccc(C#CC2CC2)c(F)c1 (some centres unmarked) [Compound I-85] 50 to 75%

Entry Cc1cc(OCC(=O)N2CCNCC2)cc(=O)n1[C@H](C)c1ccc(C#CC2CC2)cc1 [Compound I-61] please > 75%

Please answer likewise for Cc1cc(OCC(=O)N2C[C@@H](O)[C@H](O)C2)cc(=O)n1[C@H](C)c1ccc(C#CC2CC2)cc1 [Compound I-315] > 75%

Record: Cc1cc(OCC(=O)N2CCOCC2)cc(=O)n1[C@H](C)c1ccc(C#CC2CC2)c(F)c1 [Compound I-27] > 75%

And for Cc1cc(OCC(=O)N2CC(F)(F)C2)cc(=O)n1[C@H](C)c1ccc(C#CC2CC2)c(F)c1 [Compound I-24] ? > 75%

Entry to check: Cc1cc(OCC(=O)N(C)C2CC2)cc(=O)n1[C@H](C)c1ccc(C#CC2CC2)cc1 [Compound I-42] > 75%

Subsequent entry: Cc1cc(OCC(=O)NC(C)C)cc(=O)n1[C@H](C)c1ccc(C#CC2CC2)cc1 [Compound I-54] > 75%

Ok, now CNS(=O)(=O)COc1cc(C)n([C@H](C)c2ccc(C#CC3CC3)c(F)c2)c(=O)c1 [Compound I-45] 50 to 75%

Likewise for Cc1cc(OCC(=O)NC2CC2)cc(=O)n1[C@H](C)c1ccc(C#CC2CC2)cc1 [Compound I-50] ? > 75%

Another compound to check: Cc1nc(OCC(=O)N2CC[C@@H](C(=O)O)C2)cc(=O)n1[C@H](C)c1ccc(C#CC2CC2)cc1 [Compound I-298] > 75%

Next up: Cc1cc(OCC(=O)N2CC[C@H]2C(=O)O)cc(=O)n1[C@H](C)c1ccc(C#CC2CC2)cc1 [Compound I-301] > 75%

Also Cc1cc(OCC(=O)N(C)C)cc(=O)n1[C@H](C)c1ccc(C#CC2(C(F)(F)F)CC2)cc1 [Compound I-56] , if possible. > 75%

Next record, please: COC(COc1cc(C)n([C@H](C)c2ccc(C#CC3CC3)cc2)c(=O)c1)C(C)C (some centres unmarked) [Compound I-275] > 75%

Request: Cc1cc(OCc2ncccn2)cc(=O)n1[C@H](C)c1ccc(C#CC2CC2(F)F)cc1 (some centres unmarked) [Compound I-62] 50 to 75%

Entry Cc1cc(OCC(=O)N2CC[C@H](N(C)S(C)(=O)=O)C2)cc(=O)n1[C@H](C)c1ccc(C#CC2CC2)cc1 [Compound I-337] please > 75%

====

Biological target: human GPR84 receptor (Homo sapiens, UniProt Q9NQS5)
Sequence (Q9NQS5 whole entry): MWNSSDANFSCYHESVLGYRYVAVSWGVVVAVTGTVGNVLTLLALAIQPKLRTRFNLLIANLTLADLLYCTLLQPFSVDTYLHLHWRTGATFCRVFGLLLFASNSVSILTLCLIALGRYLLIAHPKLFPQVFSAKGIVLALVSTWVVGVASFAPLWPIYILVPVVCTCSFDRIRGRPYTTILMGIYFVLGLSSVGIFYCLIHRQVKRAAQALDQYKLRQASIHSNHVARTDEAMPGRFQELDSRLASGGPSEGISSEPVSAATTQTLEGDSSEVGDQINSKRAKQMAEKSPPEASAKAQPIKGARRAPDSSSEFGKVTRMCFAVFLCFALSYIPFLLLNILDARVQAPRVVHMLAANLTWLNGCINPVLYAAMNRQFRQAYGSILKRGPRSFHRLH
Assay: Gαi biosensor BRET assay (GPR84 antagonism vs agonist ZQ-16)
Details: Gαi biosensor BRET assay, HEK293 cells, 200 nmol/L agonist ZQ-16
pIC50: −log10 of the molar value.
Measurement Name: pIC50

Can you share its pIC50? I mean this compound: Cc1cc(OCC(=O)N2CC[C@@H](F)C2)cc(=O)n1[C@H](C)c1ccc(C#CC2CC2)cc1 ≥ 6.52

Could you do the same for Cc1cc(OCC(=O)N2CCCC2(C)C)cc(=O)n1[C@H](C)c1ccc(C#CC2CC2)cc1 , please? ≥ 6.52

Please give the result for Cc1cc(OCC(=O)N(C)C)cc(=O)n1[C@H](C)c1ccc(C#CC2CC2(F)F)cc1 (some centres unmarked) too. ≥ 6.52

What do we get for CCCC#Cc1ccc([C@@H](C)n2c(C)cc(OCC(=O)N(C)C)cc2=O)cc1 ? ≥ 6.52

Thanks! And Cc1cc(OCC(=O)N2CCC(F)(F)C2)cc(=O)n1[C@H](C)c1ccc(C#CC2CC2)cc1 ? ≥ 6.52

Could you do the same for Cc1cc(OCC(=O)N2CC[C@@H](S(=O)(=O)N(C)C)C2)cc(=O)n1[C@H](C)c1ccc(C#CC2CC2)cc1 , please? 6.00 to 6.52

# repeat for Cc1cc(OCC(=O)N(C(C)C)C(C)C)cc(=O)n1[C@H](C)c1ccc(C#CC2CC2)cc1 6.00 to 6.52

What do you get for Cc1cc(OCC(=O)N2CC[C@H](S(=O)(=O)N(C)C)C2)cc(=O)n1[C@H](C)c1ccc(C#CC2CC2)cc1 ? 5.52 to 6.00

Another compound to check: Cc1cc(OCC(=O)N2CC(C)C2)cc(=O)n1[C@H](C)c1ccc(C#CC2CC2)cc1 ≥ 6.52

# iterate: Cc1cc(OCC(=O)N2CC[C@@H](C#N)C2)cc(=O)n1[C@H](C)c1ccc(C#CC2CC2)cc1 ≥ 6.52

What about Cc1cc(OCC(=O)N(C)C)cc(=O)n1[C@H](C)c1ccc(C#CC2CC2)c(Br)c1 ? ≥ 6.52

====

Biological target: human GPR84 receptor (Homo sapiens, UniProt Q9NQS5)
Construct: host or cells: HEK293, transiently transfected
Experiment: Gαi biosensor BRET assay (GPR84 antagonism vs agonist ZQ-16)
Assay type: cell-based
Conditions: tested at 10 μM (concentration code D); HEK293 cells; 200 nmol/L agonist ZQ-16
Measurement Name: inhibition at 10 µM

Looking for the measured inhibition at 10 µM of Cc1cc(OCC(=O)N(C)C)cc(=O)n1[C@H](C)c1ccc(C(=O)O)cc1 , can you help? < 25%

What about Cc1cc(OCCN2CCCC2)cc(=O)n1[C@H](C)c1ccc(C#CC2CC2)cc1 ? 25 to 50%

Try the compound CC#CC#Cc1ccc([C@@H](C)n2c(C)cc(OCc3ncccn3)cc2=O)cc1 25 to 50%

Input Cn1c(-c2ccc(C#CC3CC3)cc2)cc(OCC2COCCO2)nc1=O (centres unmarked) < 25%

// same read-out, input: Cc1cc(OCC(N(C)C)C(F)(F)F)cc(=O)n1[C@H](C)c1ccc(C#CC2CC2)cc1 (some centres unmarked) 50 to 75%

Queued: Cc1cc(OCS(N)(=O)=O)cc(=O)n1[C@H](C)c1ccc(C#CC2CC2)cc1 > 75%

Query Cc1cc(OCC(O)C(C)C)cc(=O)n1[C@H](C)c1ccc(C#CC2CC2)cc1 (some centres unmarked) next > 75%

Now the same for Cc1cc(OCc2ncn[nH]2)cc(=O)n1[C@H](C)c1ccc(C#CC2CC2)cc1 > 75%

Please give the result for Cc1cc(OCC(=O)NC2COC2)cc(=O)n1[C@H](C)c1ccc(C#CC2CC2)cc1 too. 50 to 75%

Further, for Cc1cc(OCc2cnc(C3CC3)cn2)cc(=O)n1C(C)c1ccc(OCC2CCCCO2)c(F)c1 (centres unmarked) ? < 25%

For Cc1cc(OCC(=O)N2CC[C@H](S(C)(=O)=O)C2)cc(=O)n1[C@H](C)c1ccc(C#CC2CC2)cc1 then? > 75%

Please do the same for Cc1nc(OCC(=O)N2CCC[C@@H]2C(=O)O)cc(=O)n1[C@H](C)c1ccc(C#CC2CC2)cc1 as well. 50 to 75%

Record: Cc1cc(OCC(=O)N(C)C)cc(=O)n1C(C)c1ccnc(O)c1 (centres unmarked) < 25%

Would you mind doing Cc1cc(OCCN(C)C)cc(=O)n1[C@H](C)c1ccc(C#CC2CC2)cc1 as well? 50 to 75%

Similarly, Cc1cc(OCC(=O)N(C)C)cc(=O)n1[C@H](C)c1ccc(C#CC2CC2(F)F)c(F)c1 (some centres unmarked) ? > 75%

Repeat with Cc1cc(OCc2ncccn2)cc(=O)n1[C@H](C)c1ccc(-c2ccc(C3CC3)cc2)cc1 < 25%

Now give it for Cc1cc(OCC(O)C(C)(C)C)cc(=O)n1[C@H](C)c1ccc(C#CC2CC2)cc1 (some centres unmarked) too. > 75%

Next entry: Cc1nc(OCC(=O)N(C)C2COC2)cc(=O)n1[C@H](C)c1ccc(C#CC2CC2)cc1 > 75%

Same again, this time with Cc1cc(OCC(=O)N2CCC[C@@H]2C(=O)O)cc(=O)n1[C@H](C)c1ccc(C#CC2CC2)cc1 > 75%

Continue with Cc1cc(OCC(=O)N2CC[C@@H](N(C)S(C)(=O)=O)C2)cc(=O)n1[C@H](C)c1ccc(C#CC2CC2)cc1 > 75%
